Examples of compounds with documented Ethanol Production Maximum % Control follow.
test system: recombinant Escherichia coli KO11; test: Batch fermentation of E. coli KO11 in 1% CSL medium and glucose with nutrient additives: ethanol production and cell growth; format: cell-based; details: 1% CSL+glucose; additive 2 g/L unless indicated

Known Ethanol Production Maximum % Control results, listed for orientation:
Field: Ethanol Production Maximum % Control (recombinant Escherichia coli KO11). Entry: O=C(O)/C=C/C(=O)O [Fumarate] 88.98%

Record: N[C@@H](CCC(=O)O)C(=O)O [Glutamate, glutamate] 117.30%

O=C(O)CCC(=O)C(=O)O [a-KG, α-ketoglutarate] , same question. 109.03%

Continuing:
Enter reported Ethanol Production Maximum % Control observed with recombinant Escherichia coli KO11 for O=C(O)CCC(=O)O [Succinate, succinate] 81.46%
